Reference source: paper PMC5430895

- Assay system: hOCT2 (Homo sapiens)
- Sequence (O15244 1-555): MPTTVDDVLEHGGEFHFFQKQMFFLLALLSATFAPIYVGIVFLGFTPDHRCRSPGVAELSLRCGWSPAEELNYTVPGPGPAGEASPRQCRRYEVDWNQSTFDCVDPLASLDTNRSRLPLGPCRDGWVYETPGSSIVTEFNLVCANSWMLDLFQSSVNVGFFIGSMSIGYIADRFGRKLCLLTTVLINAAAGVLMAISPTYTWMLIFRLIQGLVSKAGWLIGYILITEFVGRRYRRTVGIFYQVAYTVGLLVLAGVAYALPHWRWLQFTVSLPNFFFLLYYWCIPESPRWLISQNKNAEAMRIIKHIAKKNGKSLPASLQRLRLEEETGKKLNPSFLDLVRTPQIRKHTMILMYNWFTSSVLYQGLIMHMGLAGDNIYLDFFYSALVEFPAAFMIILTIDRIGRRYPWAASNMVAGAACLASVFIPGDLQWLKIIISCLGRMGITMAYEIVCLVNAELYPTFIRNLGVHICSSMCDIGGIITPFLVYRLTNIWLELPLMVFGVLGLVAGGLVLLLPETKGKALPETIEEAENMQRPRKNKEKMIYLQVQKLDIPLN
- Test name: Inhibition of ASP+ uptake in hOCT2-HEK293 cells (apparent affinity)
- Conditions: hOCT2-HEK293, ASP+ 1 µM
Observation type: IC50 (nM)
Give the value in nM but do not write nM after it.

## Task Could you tell me which IC50 is on file for CN1CCN(CCOc2cc(OC3CCOCC3)c3c(Nc4c(Cl)ccc5c4OCO5)ncnc3c2)CC1 [saracatinib] ?
## Result 900

---

- Assay system: hOCTN1 (Homo sapiens)
- Sequence (Q9H015 whole entry): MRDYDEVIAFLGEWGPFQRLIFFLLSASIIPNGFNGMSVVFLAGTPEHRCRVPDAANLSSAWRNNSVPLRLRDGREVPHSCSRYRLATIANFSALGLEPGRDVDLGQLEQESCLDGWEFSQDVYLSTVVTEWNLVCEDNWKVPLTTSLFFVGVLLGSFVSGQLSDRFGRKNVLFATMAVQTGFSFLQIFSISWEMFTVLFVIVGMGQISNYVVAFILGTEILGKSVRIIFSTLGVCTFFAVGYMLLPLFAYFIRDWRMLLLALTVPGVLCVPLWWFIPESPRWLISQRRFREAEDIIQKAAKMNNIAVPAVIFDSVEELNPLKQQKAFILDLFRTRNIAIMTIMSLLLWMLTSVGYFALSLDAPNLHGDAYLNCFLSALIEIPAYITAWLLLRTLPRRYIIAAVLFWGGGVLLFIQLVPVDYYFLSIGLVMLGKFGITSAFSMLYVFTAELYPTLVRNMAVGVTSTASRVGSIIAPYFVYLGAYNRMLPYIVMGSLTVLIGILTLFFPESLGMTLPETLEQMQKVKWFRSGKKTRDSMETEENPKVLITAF
- Test name: Inhibition of ASP+ uptake in hOCTN1-HEK293 cells (apparent affinity)
- Conditions: hOCTN1-HEK293, ASP+ 1 µM
Observation type: IC50 (nM)
Give the value in nM but do not write nM after it.

## Task Could you tell me which IC50 is on file for `CN1CCN(CCOc2cc(OC3CCOCC3)c3c(Nc4c(Cl)ccc5c4OCO5)ncnc3c2)CC1` ?
## Result 72
